From: patent US20230233569A1

Target or system: NRAS G12C (Homo sapiens, UniProt P01111+P62937, G12C)
Sequence (P01111 whole entry G12C): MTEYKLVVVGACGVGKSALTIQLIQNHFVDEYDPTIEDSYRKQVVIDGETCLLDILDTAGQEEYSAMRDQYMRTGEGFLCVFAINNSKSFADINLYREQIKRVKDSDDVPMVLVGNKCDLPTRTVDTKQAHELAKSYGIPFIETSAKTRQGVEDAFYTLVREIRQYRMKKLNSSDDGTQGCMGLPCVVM
Sequence (P62937 whole entry): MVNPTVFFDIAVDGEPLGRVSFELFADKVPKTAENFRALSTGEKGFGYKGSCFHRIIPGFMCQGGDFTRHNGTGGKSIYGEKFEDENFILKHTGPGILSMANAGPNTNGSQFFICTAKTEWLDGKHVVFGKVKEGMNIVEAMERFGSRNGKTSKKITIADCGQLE
Method summary: Ras-Raf disruption / FRET / MOA assay (BRAF RBD)
Type: biochemical
Conditions used: NRAS G12C FRET data IC50, NRAS G12C
pIC50: −log10 of the molar value.
Result type: pIC50

- Compound: "CCn1c(-c2cccnc2[C@H](C)OC)c2c3cc(ccc31)-c1cc(O)cc(c1)C[C@H](NC(=O)[C@H](C(C)C)N(C)C(=O)[C@H]1CCCN1C(=O)[C@@H]1CN1)C(=O)N1CCC[C@H](N1)C(=O)OCC(C)(C)C2"
  Target or system: "NRAS G12C (Homo sapiens, UniProt P01111+P62937, G12C)"
  Value reported: "> 8.00"
- Compound: "CCn1c(-c2cccnc2[C@H](C)OC)c2c3cc(ccc31)-c1cc(O)cc(c1)C[C@H](NC(=O)[C@H](C(C)C)N(C)C(=O)CN(C)C(=O)[C@H]1CN1C(C)C)C(=O)N1CCC[C@H](N1)C(=O)OCC(C)(C)C2 (some centres unmarked)"
  Target or system: "NRAS G12C (Homo sapiens, UniProt P01111+P62937, G12C)"
  Value reported: "> 8.00"

====

// values below are reported pIC50
Target or system: KRAS G13C (Homo sapiens, UniProt P01116+P62937, G13C)
Sequence (P01116 1-169 isoform P01116-2 G13C limits assumed): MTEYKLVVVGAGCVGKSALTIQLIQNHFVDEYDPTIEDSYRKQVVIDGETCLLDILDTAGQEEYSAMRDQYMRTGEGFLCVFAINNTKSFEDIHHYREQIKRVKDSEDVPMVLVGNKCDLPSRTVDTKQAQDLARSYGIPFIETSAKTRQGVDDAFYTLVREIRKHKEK
Sequence (P62937 whole entry): as the sequence (P62937 whole entry) above
Method summary: Ras-Raf disruption / FRET / MOA assay (BRAF RBD)
Type: biochemical
Conditions used: Ras-Raf disruption, with Cyclophilin A; read-out: KRAS G13C FRET data IC50
pIC50: −log10 of the molar value.

- Compound: "CCn1c(-c2cccnc2[C@H](C)OC)c2c3cc(ccc31)-c1cc(O)cc(c1)C[C@H](NC(=O)[C@H](C(C)C)N(C)C(=O)c1ccc([C@@H]3CN3)cc1)C(=O)N1CCC[C@H](N1)C(=O)OCC(C)(C)C2"
  pIC50: "7.00 to 8.00"
- Compound: "CCn1c(-c2cccnc2[C@H](C)OC)c2c3cc(ccc31)-c1cc(O)cc(c1)C[C@H](NC(=O)[C@H](C(C)C)N(C)C(=O)[C@H]1CCN(C(=O)[C@@H]3N[C@@H]3C3CC3)C1)C(=O)N1CCC[C@H](N1)C(=O)OCC(C)(C)C2 (atropisomer, axis not shown)"
  pIC50: "7.00 to 8.00"
- Compound: "CCn1c(-c2cccnc2[C@H](C)OC)c2c3cc(ccc31)-c1csc(n1)C[C@H](NC(=O)[C@H](C(C)C)N(C)C(=O)N1CCC(CN(C)C(=O)[C@H]3CN3)CC1)C(=O)N1CCC[C@H](N1)C(=O)OCC(C)(C)C2 (atropisomer, axis not shown)"
  pIC50: "7.00 to 8.00"
- Compound: "CCn1c(-c2cccnc2[C@H](C)OC)c2c3cc(ccc31)-c1cc(O)cc(c1)C[C@H](NC(=O)[C@H](C(C)C)N(C)C(=O)[C@H]1CCCCN(C(=O)[C@H]3CN3)C1)C(=O)N1CCC[C@H](N1)C(=O)OCC(C)(C)C2 (atropisomer, axis not shown)"
  pIC50: "6.00 to 7.00"

====

Target or system: KRAS G12D (Homo sapiens, UniProt P01116+P62937, G12D)
Sequence (P01116 1-169 isoform P01116-2 G12D limits assumed, one chain of several): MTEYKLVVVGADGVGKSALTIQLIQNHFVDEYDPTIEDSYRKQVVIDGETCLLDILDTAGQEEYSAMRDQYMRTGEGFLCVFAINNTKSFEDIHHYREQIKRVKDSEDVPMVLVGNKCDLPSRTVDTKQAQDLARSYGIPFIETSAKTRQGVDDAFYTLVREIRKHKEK
Method summary: Disruption of BRAF RBD interaction with Ras (FRET / MOA assay, with Cyclophilin A)
Assay type: biochemical
Conditions used: read-out: KRAS G12D FRET data, IC50
Result type: IC50

- Molecule: "CCn1c(-c2cccnc2[C@H](C)OC)c2c3cc(ccc31)-c1csc(n1)C[C@H](NC(=O)[C@H](C(C)C)N(C)C(=O)N1CC(C#N)C1)C(=O)N1CCC[C@H](N1)C(=O)OCC(C)(C)C2 (atropisomer, axis not shown)"
  Value reported: "100 to 1000 nM"
- Molecule: "CCn1c(-c2ccccc2CN(C)C)c2c3cc(ccc31)-c1cc(O)cc(c1)C[C@H](NC(=O)[C@H](C(C)C)N(C)C(=O)[C@H]1CCN(C(=O)/C=C/CN(C)C)C1)C(=O)N1CCC[C@H](N1)C(=O)OCC(C)(C)C2"
  Value reported: "1000 to 10000 nM"
- Molecule: "CCn1c(-c2cccnc2[C@H](C)OC)c2c3cc(ccc31)-c1csc(n1)C[C@H](NC(=O)[C@H](C(C)C)N(C)C(=O)N1CC(C3CN(C)C3)C1)C(=O)N1CCC[C@H](N1)C(=O)OCC(C)(C)C2 (atropisomer, axis not shown)"
  Value reported: "100 to 1000 nM"
- Molecule: "CCn1c(-c2cccnc2[C@H](C)OC)c2c3cc(ccc31)-c1cc(O)cc(c1)C[C@H](NC(=O)[C@H](C(C)C)N(C)C(=O)[C@H]1C[C@@H]1C)C(=O)N1CCC[C@H](N1)C(=O)OCC(C)(C)C2"
  Value reported: "100 to 1000 nM"
- Molecule: "CCn1c(-c2cccnc2[C@H](C)OC)c2c3cc(ccc31)-c1csc(n1)C[C@H](NC(=O)[C@H](C(C)C)N(C)C(=O)N1CCOC[C@@H]1c1ccccc1)C(=O)N1CCC[C@H](N1)C(=O)OCC(C)(C)C2"
  Value reported: "1000 to 10000 nM"
- Molecule: "CCn1c(-c2cccnc2[C@H](C)OC)c2c3cc(ccc31)-c1csc(n1)C[C@H](NC(=O)[C@H](C(C)C)N(C)C(=O)N1CC(C#N)(N(C)C)C1)C(=O)N1CCC[C@H](N1)C(=O)OCC(C)(C)C2"
  Value reported: "1000 to 10000 nM"
- Molecule: "CCn1c(-c2cccnc2[C@H](C)OC)c2c3cc(ccc31)-c1cc(O)cc(c1)C[C@H](NS(=O)(=O)CCN(C)C)C(=O)N1CCC[C@H](N1)C(=O)OCC(C)(C)C2 (racemic)"
  Value reported: "> 10000 nM"
- Molecule: "C=CC(=O)N1CC[C@H](C(=O)N(C)[C@H](C(=O)N[C@H]2Cc3cc(O)cc(c3)-c3ccc4c(c3)c(c(-c3ccc(N5CCN(C)CC5)nc3)n4CC)CC(C)(C)COC(=O)[C@@H]3CCCN(N3)C2=O)C(C)C)C1"
  Value reported: "> 10000 nM"
- Molecule: "CCn1c(-c2cccnc2[C@H](C)OC)c2c3cc(ccc31)-c1cc(O)cc(c1)C[C@H](NC(=O)[C@H](C(C)C)N(C)C(=O)[C@H]1CCN(C(=O)OC(C)(C)C)C1)C(=O)N1CCC[C@H](N1)C(=O)OCC(C)(C)C2"
  Value reported: "100 to 1000 nM"
